assay procedure: inhibitors of TNFa-induced NFkB p65 translocation, primary screen, imaging, HUVEC, MLSMR starter and 10KST1 sets (AID 438);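 further: compound added about 3h40 before a 20 min TNFalpha stimulation; signal is the nuclear over cytoplasmic p65 intensity ratio per well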
experimental conditions: HUVEC TNFa-induced p65 nuclear translocation; at 2 µM, active compounds read high, 0% TNFa-plus-vehicle, 100% no-TNFa wells

{"compound": "CCOC(=O)N1CCN(C(=O)c2cccn3c(=O)c4sccc4nc23)CC1", "inhibition, %": 1.1}
{"compound": "CCOC(=O)N1CCC(NC(=O)CS(=O)(=O)Cc2nc(-c3ccccc3C)oc2C)CC1", "inhibition, %": -7.5}
{"compound": "CC(=O)c1ccc(C#CC(C)(C)O)s1", "inhibition, %": -2.5}
{"compound": "CCOC(=O)Cn1c(CN(C)Cc2ccccc2)nc2c1c(=O)n(C)c(=O)n2C", "inhibition, %": 6.8}
{"compound": "COc1ccc(-n2c(Cc3cccn3C)nnc2SCC(=O)Nc2cccc(OC)c2)cc1", "inhibition, %": 0.5}
{"compound": "COc1ccc(C(=O)Nn2c(C3CCC3)nc3ccccc3c2=O)c(OC)c1", "inhibition, %": -10.2}
{"compound": "Cc1nnc(SCC(=O)Nc2cc(C(F)(F)F)ccc2N2CCOCC2)o1", "inhibition, %": 0.2}
{"compound": "CC(C)CN1C(=O)c2ccc(C(=O)Nc3ccccn3)cc2C1=O", "inhibition, %": -5.4}
{"compound": "CCOC(=O)c1c(C)oc2c1c(C(c1ccncc1)N1CCOCC1)c(O)c1ccccc12 (configuration not stated)", "inhibition, %": -7.9}
{"compound": "COc1cc(S(=O)(=O)N2CCC(N3CCCCC3)CC2)ccc1-n1cnnn1", "inhibition, %": 6.9}
{"compound": "CCOC(=O)Cc1c(C)c2c(O)cc(O)cc2oc1=O", "inhibition, %": 9}
{"compound": "N#CCCNCC1(c2ccccc2)CCCC1", "inhibition, %": -9.1}
{"compound": "O=c1c2ccccc2c(/C=N/n2cnnc2)c(O)n1-c1ccccc1", "inhibition, %": -1.9}
{"compound": "CCN(CC)c1nc2nonc2nc1N(CC)CC", "inhibition, %": -11.8}
{"compound": "O=C(CSc1ncnc2ccccc12)NCCCO", "inhibition, %": -11}
{"compound": "CC1=C(C(=O)N2CCCCC2)C(c2cccs2)C2=C(CCCC2=O)N1 (configuration not stated)", "inhibition, %": -3.9}
{"compound": "CC(=O)NCC(=O)OCN1C(=O)c2ccccc2C1=O", "inhibition, %": -8.8}
{"compound": "COCCNC(=O)c1cc(-c2cccs2)on1", "inhibition, %": -4}
{"compound": "CS(=O)(=O)C1=C(O)C(=O)N(c2ccccc2)C1c1ccccc1 (configuration not stated)", "inhibition, %": -6}
{"compound": "Cc1nc(N2CCC(C)CC2)c2c(C)c(C(=O)O)sc2n1", "inhibition, %": -4.1}
{"compound": "COc1ccc(NC(=O)C(C)NS(=O)(=O)c2ccccc2)cc1Cl (configuration not stated)", "inhibition, %": -15.9}
{"compound": "CCN(CC)CCN1C(=O)C(=O)/C(=C(/O)c2c(C)[nH]c(C(=O)OC)c2C)C1c1ccc(OC)cc1 (configuration not stated)", "inhibition, %": -1.5}
{"compound": "COc1ccc(N2CC(=O)N(c3ccc(OC)c(OC)c3)CC2=O)cc1OC", "inhibition, %": -5.7}
{"compound": "O=C(O)c1ccnc(C(=O)O)c1", "inhibition, %": -4.6}
{"compound": "CCc1ccc(C2CC(c3ccccc3)n3ncnc3N2)cc1 (configuration not stated)", "inhibition, %": 1.1}
{"compound": "O=C(NCCN1CCOCC1)c1ccc(=O)oc1", "inhibition, %": -7.5}
{"compound": "CCOc1ccc(NC(=O)c2nn(C)cc2Br)cc1", "inhibition, %": 2.4}
